// reported Samples with optimal concentration for each item listed
# test.method.notes: Residual plasma concentration of kinase inhibitors by UPLC-MS/MS in NSCLC patients, classed optimal or suboptimal
# measurement.parameters: human, in vivo

Would you please look over these solved cases?
input.smiles | parameter.measured | recorded.measurement
C#Cc1cccc(Nc2ncnc3cc(OCCOC)c(OCCOC)cc23)c1 | Samples with optimal concentration | 7 (28%) No. (%)
CC(=O)Nc1cccc(-n2c(=O)n(C3CC3)c(=O)c3c(Nc4ccc(I)cc4F)n(C)c(=O)c(C)c32)c1 | Samples with optimal concentration | 2 (8%) No. (%)
C=CC(=O)Nc1cc(Nc2nccc(-c3cn(C)c4ccccc34)n2)c(OC)cc1N(C)CCN(C)C | Samples with optimal concentration | 4 (16%) No. (%)

Consider the record given below.
Task item: Answer with the recorded Samples with optimal concentration for the molecule listed here: COc1cc2ncnc(Nc3ccc(F)c(Cl)c3)c2cc1OCCCN1CCOCC1
Reply: 8 (32%) No. (%)
